// reported GI50 for each item listed
System: OVCAR-5
Method Summary: NCI tumour cell line growth inhibition, 48 h
Activity calls are given as the source filed them. No stated cut-off is given here; in the data, active = GI50 up to about 1.1 µM and inactive = higher.
Readout Name: GI50

| Compound | Result |
| --- | --- |
| C/C=C/C=C/c1nc(C#N)c(N)o1 | > 100 µM (inactive) |
| COC1CCC(O)C(CO)O1 (stereo unspecified) | > 100 µM (inactive) |
| CC1C(C#N)(C#N)C(C#N)=C(N)C1(C)[N+](=O)[O-] (stereo unspecified) | > 100 µM (inactive) |
| COC1(OC)N=C(N)C2(C#N)/C(=N/N(C)C)CC(C)C12C#N (stereo unspecified) | > 100 µM (inactive) |
| CC(=O)N1C(c2[nH]c3ccccc3c2-c2ccccc2)CCN1c1ccccc1 (stereo unspecified) | > 10 µM (inactive) |
| CCn1c(SCC(=O)NNC(=S)Nc2ccc(C)cc2)nc2ccccc2c1=O | > 100 µM (inactive) |

---

Consider the following molecules and their measured GI50 readings.
System: NCI-H226
Method Summary: NCI tumour cell line growth inhibition, 48 h
Activity calls are given as the source filed them. No stated cut-off is given here; in the data, active = GI50 up to about 1.1 µM and inactive = higher.

| Molecule | GI50 |
| --- | --- |
| CC(=O)[C@]1(C)[C@H](C)O[C@](C)(CO)[C@H]1O[Si](C)(C)c1ccccc1 | 67.9 µM (inactive) |
| COc1cc(C2c3cc4c(cc3OC(NN)C2C)OCO4)cc(OC)c1O (stereo not given) | 25.4 µM (inactive) |
| CN(/N=C/c1ccc(Cl)c(Cl)c1)C1=NCCCCN1 | 2.45 µM (inactive) |
| O=C1NC(N2CCOCC2)=N/C1=C\c1ccco1 | > 100 µM (inactive) |
| O=C1NC(=S)NC(=O)C1=Cc1ccc([N+](=O)[O-])o1 | > 100 µM (inactive) |
| CC12CCC3(C1)[C@H](CC2=O)C[C@@H](OC(=O)c1ccccc1)C1C(C)(CO)CCC[C@@]13C (stereo not given in full) | 1.6 µM (inactive) |
| Cc1c2c(n3c(nc4ccccc43)c1C#N)N(c1ccc(Cl)cc1)CC2 | > 100 µM (inactive) |
| O=C(CCC1C(=O)NC(=S)NC1=O)c1ccc2ccccc2c1 | > 100 µM (inactive) |
| O=C(O)c1nc2ccccc2nc1NCc1ccc(F)cc1 | 51.6 µM (inactive) |
| COc1ccc(/C=C/C(=O)CCN2CCN(CCC(=O)/C=C/c3ccc(OC)cc3)CC2)cc1 | 22.3 µM (inactive) |

---

System: DU-145
Method Summary: NCI tumour cell line growth inhibition, 48 h
Active and inactive are the calls of the source. Rule as the data show it: active = GI50 up to about 1.1 µM and inactive = higher.
Possible outcomes: active, inactive

| Compound | Answer Label |
| --- | --- |
| Nc1ccc2c(c1)CN1C(=O)c3ccccc3C1=N2 | inactive |
| Clc1ccc(CNc2nc(Cl)c3nc[nH]c3n2)cc1Cl | inactive |
| O=C1C(Cl)=C(Cl)C(Cl)(Cl)C(Cl)C1(Cl)Cl (stereo not given) | inactive |
| NS(=O)(=O)c1nnc(NS(=O)(=O)c2ccc(F)cc2)s1 | inactive |
| CN1C(c2ccccc2)CC(=NOCc2ccccc2)CC1c1ccccc1 (stereo not given) | inactive |
| CCCCCCCCC/C=C1/CC(CO)(COC(=O)C2CCCCC2)OC1=O (stereo not given) | inactive |
| COC1C(=O)CCC2(CO2)C1(O)C1(C)OC1CCC(C)C (stereo not given) | inactive |
| Cc1nc2ccccc2n1Cc1nnc(-c2ccccc2)o1 | inactive |
| O=C(O)C12C3CCC(CC3)C1(C(=O)O)C1CCC2C1 (stereo not given) | inactive |
| CC(C)(C)c1cc(C2COC(=O)COCC(=O)OCCOCCOCCO2)cc(C(C)(C)C)c1O (stereo not given) | inactive |
| [O-][n+]1c2c([n+]([O-])c3ccccc31)-c1cccc3cccc-2c13 | inactive |
| COC(=O)n1c(=O)n(-c2ccccc2)c(=O)n1C(=O)Nc1ccccc1 | inactive |
| OC1(c2ccc(Cl)cc2)c2ccccc2C2=Nc3ccccc3CN21 (stereo not given) | inactive |
| C[N+](C)(C)CCN(Cc1cccs1)c1ccccn1 | inactive |
| Nc1ccc(S(=O)(=O)NCc2nccs2)cc1 | inactive |
| CCOC(=O)C(=O)C(=O)NN(C)C1=NCCN1 | inactive |
| Oc1cn(-c2ccc(Cl)cc2)nc1-c1n[nH]c(=S)n1-c1ccccc1 | inactive |
| CC1CCC(C(C)C2C(O)CC3C4CC=C5CC(O)CCC5(C)C4CCC32C)NC1 (stereo not given) | inactive |
| C/C=C/C=C/c1nc(C#N)c(N)o1 | inactive |
| C[C@@]1(CCCCCCCCCCc2ccccc2)C[C@@]2(C)OC(=O)C[C@H]2OO1 | inactive |
| C#C[C@]1(O)CC[C@H]2[C@@H]3CCC4=C/C(=N/OC(=O)c5cccc6c(=O)c7ccccc7[nH]c56)CCC4[C@H]3CC[C@@]21CC (stereo not given in full) | inactive |
| Nc1ncnc2c1ncn2C1C=CC(CP(=O)(O)O)C1 (stereo not given) | inactive |
| Cc1c2c(n3c(nc4ccccc43)c1C#N)N(c1ccc(Cl)cc1)CC2 | inactive |
| O=C1C=C(Br)c2c(Br)sc(Br)c21 | inactive |
| COC(=O)C1=C(OC(=O)/C(=C/c2c(F)cccc2F)c2ccccc2)C(C(=O)OC)[C@@]2(O)[C@@H](C(=O)OC)[C@H](C)C[C@@H]1[C@@H]2C(=O)OC (stereo not given in full) | inactive |
| COc1c(Br)cc2c(c1OC)C(Br)CCC(Br)(Br)C2=O (stereo not given) | inactive |
| C[C@@H](c1ccccc1)C(CC#N)[C@H]1CCC[C@]1(O)C#Cc1ccc2c(c1)OCO2 (stereo not given in full) | inactive |
| CC1(C)OCC(COC(=O)NCn2cc(-c3ccccc3)nn2)O1 (stereo not given) | inactive |
| O=c1[nH]c2nccn2c2c1SCCN2 | inactive |
| O=C(c1cccs1)N(C(=S)OCCOc1ccccc1)c1ccccc1 | inactive |
| O=C1N(c2ccccc2)C(=S)/C(=C/c2ccc(Cl)cc2)N1c1ccc(Cl)cc1 | inactive |
| CC(C)(C)OC(=O)N1CC(COS(C)(=O)=O)c2ccc(O)cc21 (stereo not given) | active |
| O=C1NC(N2CCOCC2)=N/C1=C\c1ccco1 | inactive |
| Cc1nn2c(C(=O)N/N=C/c3ccc([N+](=O)[O-])cc3)c(C)nc2s1 | inactive |
| COC1C(N(C)C)=C(c2ccccc2)C(=O)N2CCc3ccccc3C12 (stereo not given) | inactive |
| CC(CN(C)C)C(=O)/C=C/c1ccc(Cl)c(Cl)c1 (stereo not given) | inactive |
| COC(=O)c1ccc(CCc2cc(O)c(Br)cc2O)cc1 | inactive |
| CO/C=C(/C(=O)OC)c1ccccc1[C@H]1C[C@@H]1c1ccccc1 | inactive |
| CON(C)C(=O)C(C)NC(=O)OC(C)(C)C (stereo not given) | inactive |
| CCCCC(=O)c1c(O)nc2sccn2c1=O | inactive |
| Nc1nc(Cl)c(N)c(NCC2(CO)CC(OCc3ccccc3)C2)n1 (stereo not given) | inactive |
| Cc1ccsc1/C=N/Nc1nc2ccccc2s1 | inactive |
| O=c1[nH]c(=O)n(C2COC(CO)C2O)cc1F (stereo not given) | inactive |
| CCC(=O)NC(Nc1cccc(F)c1C)(C(F)(F)F)C(F)(F)F | inactive |
| O=C1O/C(=C(/Cl)c2c3ccccc3cc3ccccc23)c2ccccc21 | inactive |
